# TARGET SYSTEM: ERα (Homo sapiens, UniProt P03372)
# Sequence (P03372 311-547 limits assumed): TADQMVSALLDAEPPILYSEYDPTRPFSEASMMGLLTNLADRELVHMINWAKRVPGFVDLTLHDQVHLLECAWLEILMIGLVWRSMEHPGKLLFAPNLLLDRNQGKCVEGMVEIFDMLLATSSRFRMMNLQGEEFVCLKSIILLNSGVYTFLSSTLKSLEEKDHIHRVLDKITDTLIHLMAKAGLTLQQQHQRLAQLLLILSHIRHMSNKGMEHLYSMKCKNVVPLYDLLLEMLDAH
# PROCEDURE SUMMARY: Competition with [3H]-17β-estradiol for ERα ligand binding domain
# STUDY CONDITIONS: crude E. coli lysate expressing human ERα LBD (D, E, & F); 2 nM [3H]-17β-estradiol; 5-15 hours at room temperature
Kindly apply the following: 1 if IC50 is less than 1000 nM, 0 in every other case.

COMPOUND: Oc1ccc2nc(-c3ccc(O)c(F)c3)cc(-c3ccncc3)c2c1
ASSIGNED CATEGORY: 0
//
COMPOUND: Cc1ccc(-c2cc(-c3ccc(O)c(F)c3)nc3ccc(O)cc23)cc1
ASSIGNED CATEGORY: 0
//
COMPOUND: Oc1ccc(-c2ccc3c(Br)c(O)ccc3n2)cc1 [Cpd 32, 5-Bromo-2-(4-hydroxyphenyl)quinolin-6-ol]
ASSIGNED CATEGORY: 0
//
COMPOUND: N#Cc1cc(O)cc2c(Cl)cc(-c3ccc(O)c(F)c3)nc12
ASSIGNED CATEGORY: 1
//
COMPOUND: Oc1ccc2nc(-c3ccc(O)c(F)c3)cc(Br)c2c1
ASSIGNED CATEGORY: 1

## Task Quick check: IC50 of C#Cc1cc(-c2ccc(O)c(F)c2)nc2c(C#N)cc(O)cc12 under 1000 nM?
## Result 1

## Task Then this compound: Oc1ccc2nc(-c3ccc(O)c(F)c3)cc(-c3nccs3)c2c1
## Result 0

## Task Then this compound: CC(O)c1cc(-c2ccc(O)cc2)nc2ccc(O)cc12 (stereo not drawn) [Cpd 17a]
## Result 0

## Task Then this compound: Oc1ccc2nc(-c3ccc(O)c(F)c3)cc(-c3ccc(C(F)(F)F)cc3)c2c1
## Result 0

###

# TARGET SYSTEM: UniProt Q92731
# PROCEDURE SUMMARY: Competition with [3H]-17β-estradiol for ERβ ligand binding domain
# STUDY CONDITIONS: crude E. coli lysate expressing human ERβ LBD (D, E, & F); 2 nM [3H]-17β-estradiol; 5-15 hours at room temperature
REPORTED ENDPOINT: IC50 (µM)
Answers are plain numbers, in µM.

Please review the entries below; each comes with its answer.
MOLECULE: Oc1ccc2nc(-c3ccc(O)c(F)c3)cc(-c3ccc(Cl)cc3)c2c1 [Cpd 23]
TARGET SYSTEM: UniProt Q92731
OBSERVED MEASUREMENT: 0.146
--
MOLECULE: N#Cc1ccc(-c2cc(O)cc3c(Cl)cc(-c4ccc(O)c(F)c4)nc23)cc1 [Cpd 61]
TARGET SYSTEM: UniProt Q92731
OBSERVED MEASUREMENT: 0.013
--
MOLECULE: N#Cc1ccc(-c2cc(-c3ccc(O)c(F)c3)nc3c(Cl)cc(O)cc23)cc1 [Cpd 51]
TARGET SYSTEM: UniProt Q92731
OBSERVED MEASUREMENT: 0.037
--
MOLECULE: Oc1ccc2nc(-c3ccc(O)c(F)c3)cc(C#Cc3ccccc3)c2c1 [Cpd 15]
TARGET SYSTEM: UniProt Q92731
OBSERVED MEASUREMENT: 0.195

Now for a further molecule.
## Task Item under review: C=Cc1cc(-c2ccc(O)c(F)c2)nc2ccc(O)cc12 [Cpd 11b] . Reported IC50?
## Result 0.037

###

Record form. Attribute: α/β. Fill in for each entry.
# TARGET SYSTEM: ERβ (Homo sapiens, UniProt Q92731)
# Construct: made in house; host or cells: E. coli
# Sequence (Q92731 264-498 limits assumed): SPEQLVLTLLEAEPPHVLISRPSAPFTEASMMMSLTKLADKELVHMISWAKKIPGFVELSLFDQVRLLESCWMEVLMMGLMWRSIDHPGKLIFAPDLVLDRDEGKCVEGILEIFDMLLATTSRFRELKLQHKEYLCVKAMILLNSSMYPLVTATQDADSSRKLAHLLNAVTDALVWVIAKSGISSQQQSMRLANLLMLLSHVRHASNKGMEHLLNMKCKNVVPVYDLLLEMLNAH
# PROCEDURE SUMMARY: Competition with [3H]-17β-estradiol for ERβ ligand binding domain
# STUDY CONDITIONS: receptor selectivity, ratio ERα IC50 / ERβ IC50
One number for each entry.

Please review the entries below; each comes with its answer.
COMPOUND: Oc1ccc2nc(-c3ccc(O)c(F)c3)c(Cl)c(Br)c2c1 [Cpd 35b]
α/β: 24
//
COMPOUND: CCCCC#Cc1cc(-c2ccc(O)c(F)c2)nc2c(Cl)cc(O)cc12 [Cpd 49]
α/β: 14
//
COMPOUND: Oc1ccc2nc(-c3ccc(O)c(F)c3)cc(-c3ccccc3)c2c1 [Cpd 20]
α/β: 11
//
COMPOUND: COc1ccc(-c2cc(-c3ccc(O)c(F)c3)nc3c(Cl)cc(O)cc23)cc1 [Cpd 52]
α/β: 15
//
COMPOUND: C=Cc1cc(-c2ccc(O)c(F)c2)nc2ccc(O)cc12 [Cpd 11b]
α/β: 12

Dear reader, for each entry below, please note its α/β.
1. CCc1cc(-c2ccc(O)cc2)nc2ccc(O)cc12 [Cpd 12a, 4-Ethyl-2-(4-hydroxyphenyl)quinolin-6-ol]
2. Cc1ccc(-c2cc(-c3ccc(O)c(F)c3)nc3ccc(O)cc23)cc1 [Cpd 21]
3. Oc1ccc2nc(-c3ccc(O)c(F)c3)cc(-c3cncnc3)c2c1 [Cpd 28]

## Result
1. 14
2. 26
3. 3

## Task Item under review: Oc1ccc(-c2cc(Cl)c3cc(O)ccc3n2)cc1 [Cpd 5a] . Reported α/β?
## Result 46

###

Record form. Attribute: log10(IC50). Fill in for each entry.
# TARGET SYSTEM: ERα (Homo sapiens, UniProt P03372)
# PROCEDURE SUMMARY: Competition with [3H]-17β-estradiol for ERα ligand binding domain
# STUDY CONDITIONS: crude E. coli lysate expressing human ERα LBD (D, E, & F); 2 nM [3H]-17β-estradiol; 5-15 hours at room temperature
For clarity, the numbers are log10 values of IC50 expressed in nM.

COMPOUND: Oc1cc(Br)c2nc(-c3ccc(O)c(F)c3)cc(Br)c2c1 [Cpd 45b]
TARGET SYSTEM: ERα (Homo sapiens, UniProt P03372)
REPORTED ENDPOINT: log10(IC50)
OBSERVED MEASUREMENT: 1.06
//
COMPOUND: CCc1cc(-c2ccc(O)c(F)c2)nc2ccc(O)cc12 [Cpd 12b]
TARGET SYSTEM: ERα (Homo sapiens, UniProt P03372)
REPORTED ENDPOINT: log10(IC50)
OBSERVED MEASUREMENT: 3.01
//
COMPOUND: CC(=O)c1cc(-c2ccc(O)c(F)c2)nc2ccc(O)cc12 [Cpd 16b]
TARGET SYSTEM: ERα (Homo sapiens, UniProt P03372)
REPORTED ENDPOINT: log10(IC50)
OBSERVED MEASUREMENT: 3.53
//
COMPOUND: C=Cc1cc(-c2ccc(O)c(F)c2)nc2ccc(O)cc12 [Cpd 11b]
TARGET SYSTEM: ERα (Homo sapiens, UniProt P03372)
REPORTED ENDPOINT: log10(IC50)
OBSERVED MEASUREMENT: 2.66
//
COMPOUND: CC(=O)c1cc(-c2ccc(O)cc2)nc2ccc(O)cc12 [Cpd 16a]
TARGET SYSTEM: ERα (Homo sapiens, UniProt P03372)
REPORTED ENDPOINT: log10(IC50)
OBSERVED MEASUREMENT: 3.47

Dear reader, for each entry below, please note its log10(IC50).
1. C=Cc1cc(-c2ccc(O)c(F)c2)nc2c(Cl)cc(O)cc12 [Cpd 50]
2. COc1ccc(-c2cc(-c3ccc(O)c(F)c3)nc3c(Cl)cc(O)cc23)cc1 [Cpd 52]
3. Oc1ccc2nc(-c3ccc(O)c(F)c3)cc(-c3ccccc3)c2c1 [Cpd 20]
4. Oc1cc(Cl)c2nc(-c3ccc(O)c(F)c3)cc(Br)c2c1 [Cpd 45a]

## Result
1: 1.88; 2: 2.29; 3: 3.14; 4: 1.27

Dear reader, for each entry below, please note its log10(IC50).
1. Oc1cc(Br)c2nc(-c3ccc(O)c(F)c3)cc(Cl)c2c1 [Cpd 44]
2. Oc1ccc(-c2nc3ccc(O)cc3c(-c3ccc(F)cc3)c2Cl)cc1 [Cpd 36]
3. Oc1ccc(-c2ccc3c(Cl)c(O)ccc3n2)cc1 [Cpd 31]

## Result
1: 1.49; 2: 2.53; 3: 2.92

###

# TARGET SYSTEM: ERα (Homo sapiens, UniProt P03372)
# PROCEDURE SUMMARY: Competition with [3H]-17β-estradiol for ERα ligand binding domain
# STUDY CONDITIONS: crude E. coli lysate expressing human ERα LBD (D, E, & F); 2 nM [3H]-17β-estradiol; 5-15 hours at room temperature
REPORTED ENDPOINT: IC50 (µM)
Give bare numbers, in µM.

Please review the entries below; each comes with its answer.
COMPOUND: N#Cc1cc(O)cc2c(Br)cc(-c3ccc(O)c(F)c3)nc12 [Cpd 57]
TARGET SYSTEM: ERα (Homo sapiens, UniProt P03372)
OUTPUT UNIT: µM
IC50: 0.086
//
COMPOUND: N#Cc1ccc(-c2cc(-c3ccc(O)c(F)c3)nc3ccc(O)cc23)cc1 [Cpd 24]
TARGET SYSTEM: ERα (Homo sapiens, UniProt P03372)
OUTPUT UNIT: µM
IC50: 1.81
//
COMPOUND: N#Cc1c(Cl)c(-c2ccc(O)c(F)c2)nc2ccc(O)cc12 [Cpd 37]
TARGET SYSTEM: ERα (Homo sapiens, UniProt P03372)
OUTPUT UNIT: µM
IC50: 0.318
//
COMPOUND: Oc1ccc2nc(-c3ccc(O)c(F)c3)cc(-c3cncnc3)c2c1 [Cpd 28]
TARGET SYSTEM: ERα (Homo sapiens, UniProt P03372)
OUTPUT UNIT: µM
IC50: 3.31

Now for a further compound.
## Task Item under review: Oc1ccc2nc(-c3cc(F)c(O)c(F)c3)cc(Br)c2c1 [Cpd 6c] . Reported IC50?
## Result 0.976
